System: L1210 leukemia ip in BDF1 mice, survival T/C
Assay: NCI In Vivo Anticancer Drug Screen. Data for tumor model L1210 Leukemia (intraperitoneal) in B6D2F1 (BDF1) mice
Conditions: endpoint: mean survival time; dose: 200.0 mg/kg/injection; schedule: Q01DX009 (ip); vehicle: saline with Tween-80; higher = longer survival
Toxic doses and inconclusive results are not listed.
Measured T/C values are reported for all entries that follow.

# annotated cases, reported T/C shown
# STRUCTURE_SMILES, T/C
measured = [
    ("CCCCOC(=O)Nc1cccc(O)c1", "87 % of control"),
    ("O=S(O)c1ccc2cc(O)c(S(=O)O)cc2c1", "95 % of control"),
    ("O=C(O)c1ccc([N+](=O)[O-])o1", "97 % of control"),
    ("Cc1c(C)c(C(=O)O)c(C)c(C)c1C(=O)O", "97 % of control"),
    ("Oc1ccc2ccccc2c1Cc1ccccc1", "89 % of control"),
]

Recorded result, Cc1ccc(S(=O)(=O)N(C)C)cc1N , T/C: 96 % of control

Reported T/C of Cc1ccc(NC(=O)c2ccc([N+](=O)[O-])cc2)c(C)c1 : 102 % of control

Just for reference, PubChem BioAssay AID248 is where these values come from.
